Test system: RPMI 8402
Test: Cytotoxicity against human lymphoblast cell line RPMI 8402
Type: functional, cell-based
Endpoint: pIC50
For clarity, pIC50 is expressed as the negative log10 of concentration in mol/L.

Which pIC50 is reported for this molecule? Cc1ccc(-c2nc3cc(-c4nc5cc(N6CCN(C)CC6)ccc5[nH]4)ccc3[nH]2)cc1
6.08

Let us now turn to CN1CCN(c2ccc3[nH]c(-c4ccc5[nH]c(-c6ccc7ccccc7c6)nc5c4)nc3c2)CC1
6.96

Let us now turn to Cc1cccc(-c2nc3cc(-c4nc5cc(N6CCN(C)CC6)ccc5[nH]4)ccc3[nH]2)c1
6.44

Let us now turn to Cc1ccccc1-c1nc2cc(-c3nc4cc(C(N)=O)ccc4[nH]3)ccc2[nH]1
5.09

Let us now turn to Cc1ccc(-c2nc3cc(-c4nc5cc(C#N)ccc5[nH]4)ccc3[nH]2)cc1
6.24

Let us now turn to NC(=O)c1ccc2[nH]c(-c3ccc4[nH]c(-c5cccc6ccccc56)nc4c3)nc2c1
5.43

Let us now turn to Cc1ccccc1-c1nc2cc(-c3nc4cc(C#N)ccc4[nH]3)ccc2[nH]1
5.92

Let us now turn to Cc1ccccc1-c1nc2cc(-c3nc4cc(N5CCN(C)CC5)ccc4[nH]3)ccc2[nH]1
6.23

Let us now turn to CN1CCN(c2ccc3[nH]c(-c4ccc5[nH]c(-c6cccc7ccccc67)nc5c4)nc3c2)CC1
6.48

Let us now turn to N#Cc1ccc2[nH]c(-c3ccc4[nH]c(-c5cccc6ccccc56)nc4c3)nc2c1
6.19

Let us now turn to CN1CCN(c2ccc3[nH]c(-c4ccc5[nH]c(-c6ccccc6)nc5c4)nc3c2)CC1
6.31

====

Catalogue of compounds with associated REC
Tested on: DNA topoisomerase 1 (Bos taurus)
Test: Effective concentration against Topoisomerase-I (purified from calf thymus gland) mediated DNA cleavage relative to Hoechst 33342
Provide a numeric answer; units are not to be included.

Some compounds with known REC results, for comparison:
> print(dat)
                           smiles.structure               experimental.target  result.value
1  CN1CCN(c2ccc3[nH]c(-c4ccc5[nH]c(-c6cccc7ccccc67)nc5c4)nc3c2)CC1  DNA topoisomerase 1 (Bos taurus)            20
2  Cc1ccccc1-c1nc2cc(-c3nc4cc(C(N)=O)ccc4[nH]3)ccc2[nH]1  DNA topoisomerase 1 (Bos taurus)           100
3  Cc1ccc(-c2nc3cc(-c4nc5cc(N6CCN(C)CC6)ccc5[nH]4)ccc3[nH]2)cc1  DNA topoisomerase 1 (Bos taurus)             1

# get_value(readout= REC, system= DNA topoisomerase 1 (Bos taurus)) for Cc1cccc(-c2nc3cc(-c4nc5cc(N6CCN(C)CC6)ccc5[nH]4)ccc3[nH]2)c1
1

Let us now turn to Cc1ccc(-c2nc3cc(-c4nc5cc(C(N)=O)ccc5[nH]4)ccc3[nH]2)cc1
10

====

Test system: DNA topoisomerase 1 (Bos taurus)
Test: Effective concentration against Topoisomerase-I (purified from calf thymus gland) mediated DNA cleavage relative to Hoechst 33342
Endpoint: REC

> print(dat)
                           smiles.structure               experimental.target  result.value
1  N#Cc1ccc2[nH]c(-c3ccc4[nH]c(-c5ccccc5)nc4c3)nc2c1  DNA topoisomerase 1 (Bos taurus)         > 100
2  Cc1ccc(-c2nc3cc(-c4nc5cc(C#N)ccc5[nH]4)ccc3[nH]2)cc1  DNA topoisomerase 1 (Bos taurus)             1
3  N#Cc1ccc2[nH]c(-c3ccc4[nH]c(-c5ccc6ccccc6c5)nc4c3)nc2c1  DNA topoisomerase 1 (Bos taurus)            10

Which REC is reported for this compound? Cc1cccc(-c2nc3cc(-c4nc5cc(C(N)=O)ccc5[nH]4)ccc3[nH]2)c1
100

Let us now turn to NC(=O)c1ccc2[nH]c(-c3ccc4[nH]c(-c5ccc6ccccc6c5)nc4c3)nc2c1
100

Let us now turn to Cc1cccc(-c2nc3cc(-c4nc5cc(C#N)ccc5[nH]4)ccc3[nH]2)c1
100

Let us now turn to CN1CCN(c2ccc3[nH]c(-c4ccc5[nH]c(-c6ccccc6)nc5c4)nc3c2)CC1
1

Let us now turn to CN1CCN(c2ccc3[nH]c(-c4ccc5[nH]c(-c6ccc7ccccc7c6)nc5c4)nc3c2)CC1
10
